assay: self-splicing fitness, log relative to wild type (ln ratio); higher = more splicing; Tetrahymena group I intron in knt gene, E. coli kanamycin selection, DiMSum; sequences stand for … in CUCUCU…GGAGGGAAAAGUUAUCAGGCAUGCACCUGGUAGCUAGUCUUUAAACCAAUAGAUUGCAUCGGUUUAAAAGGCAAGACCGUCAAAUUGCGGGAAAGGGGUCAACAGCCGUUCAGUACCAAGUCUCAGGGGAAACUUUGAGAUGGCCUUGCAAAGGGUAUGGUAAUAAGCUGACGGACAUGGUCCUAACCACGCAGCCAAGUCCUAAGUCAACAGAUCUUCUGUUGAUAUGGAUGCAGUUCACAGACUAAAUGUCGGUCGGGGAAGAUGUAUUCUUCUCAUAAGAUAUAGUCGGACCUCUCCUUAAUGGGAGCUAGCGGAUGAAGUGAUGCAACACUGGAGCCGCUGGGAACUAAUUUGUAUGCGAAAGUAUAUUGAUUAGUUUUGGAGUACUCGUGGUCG; settings: 37 °C;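 further: selection with 25 µg/mL kanamycin versus none on LB agar overnight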
Group membership follows self-splicing fitness (ln) per the scheme low (below -2), middle (-2 to below -1), high (-1 or more)

UUGUAGCAAUAUUACGCGUG : high
AUCUAGCAAUAUUACGAGCG : middle
UCCAAGCAAUAUUACGGACA : high
UGUGAGCAAUAUUACGCAGC : middle
UGUCAGCAAUAUUACGCGGC : low
ACUCAGCAAUAUUACGCGGG : low

Task: For UCAGAGCAAUAUUACGCUUC , which self-splicing fitness (ln) bin applies?
Result: low

Task: For GGCCAGCAAUAUUACGUGGC , which self-splicing fitness (ln) bin applies?
Result: middle

Task: For GCACAGCAAUAUUACGGUCC , which self-splicing fitness (ln) bin applies?
Result: high

Task: For CCAGAGCAAUAUUACGUUGA , which self-splicing fitness (ln) bin applies?
Result: low

Task: For UCCUAGCAAUAUUACGGAUC , which self-splicing fitness (ln) bin applies?
Result: low

Task: For CAUAAGCAAUAUUACGCUCU , which self-splicing fitness (ln) bin applies?
Result: middle

Task: For CGCCAGCAAUAUUACGCAUG , which self-splicing fitness (ln) bin applies?
Result: middle

----------
experiment: self-splicing fitness, log relative to wild type (ln ratio); higher = more splicing; Tetrahymena group I intron in knt gene, E. coli kanamycin selection, DiMSum; sequences stand for … in CUCUCU…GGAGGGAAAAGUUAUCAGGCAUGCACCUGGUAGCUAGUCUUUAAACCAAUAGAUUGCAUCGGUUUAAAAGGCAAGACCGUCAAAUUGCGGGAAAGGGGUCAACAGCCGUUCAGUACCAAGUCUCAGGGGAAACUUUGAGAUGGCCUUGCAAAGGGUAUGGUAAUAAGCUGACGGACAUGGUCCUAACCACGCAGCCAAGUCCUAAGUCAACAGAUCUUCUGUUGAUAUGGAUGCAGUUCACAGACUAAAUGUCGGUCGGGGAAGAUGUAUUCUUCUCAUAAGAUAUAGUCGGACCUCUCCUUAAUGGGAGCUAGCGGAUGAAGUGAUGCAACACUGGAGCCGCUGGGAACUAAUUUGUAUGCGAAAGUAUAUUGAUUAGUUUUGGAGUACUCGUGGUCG; conditions: 37 °C
measured_attribute: self-splicing fitness (ln)
Reply briefly: the number, and no unit.

CAUCAGCAAUAUUACGUGAC : -1.2
ACAAAGCAAUAUUACGAGGU : -2.78
CUUUAGCAAUAUUACGAGGC : -1.36

Task: Give a short answer stating reported self-splicing fitness (ln) for GCACAGCAAUAUUACGAAAG .
Result: -1.91

Task: Give a short answer stating reported self-splicing fitness (ln) for CAGAAGCAAUAUUACGCCAG .
Result: -0.605

Task: Give a short answer stating reported self-splicing fitness (ln) for CGAAAGCAAUAUUACGGAGA .
Result: -1.58

Task: Give a short answer stating reported self-splicing fitness (ln) for UCCGAGCAAUAUUACGGUAG .
Result: -2.43

Task: Give a short answer stating reported self-splicing fitness (ln) for UACGAGCAAUAUUACGCGUG .
Result: -2.7

Task: Give a short answer stating reported self-splicing fitness (ln) for UUUUAGCAAUAUUACGCCUU .
Result: -0.968

Task: Give a short answer stating reported self-splicing fitness (ln) for GGUAAGCAAUAUUACGCUGU .
Result: -1.65

Task: Give a short answer stating reported self-splicing fitness (ln) for AUCAAGCAAUAUUACGGCGA .
Result: 0.246
